Cited source for all entries: patent US6972297B2

As an illustration, consider measured MIC for compounds on Haemophilius influenzae Q1.

Entry CC[C@]1(C)CC(OC(=O)NC(=O)c2ccc(N)nc2)[C@]2(C)C(C)CC[C@]3(C[C@H](O)C(=O)C23)[C@@H](C)[C@@H]1O (stereo partly drawn) [Example 39] needs its MIC filled in; supply it.
≤ 4 µg/mL

Using the record for C=C[C@]1(C)C[C@@H](OC(=O)NC(=O)c2ccc(N)nc2)[C@]2(C)C(C)CC[C@]3(C[C@H](O)C(=O)C32)[C@@H](C)[C@@H]1O (stereo partly drawn) [Example 1] , state its measured MIC.
≤ 4 µg/mL

Return MIC (reported value) for this compound: C=C[C@]1(C)C[C@@H](OC(=O)NC(=O)c2cc(OC)nc(N)n2)[C@]2(C)C(C)CC[C@]3(C[C@H](O)C(=O)C32)[C@@H](C)[C@@H]1O (stereo partly drawn) [Example 23]
≤ 4 µg/mL

Tell me measured MIC for CC[C@]1(C)CC(OC(=O)NC(=O)c2cnc(OC)c(N)c2)[C@]2(C)C(C)CC[C@]3(C[C@H](O)C(=O)C23)[C@@H](C)[C@@H]1O (stereo partly drawn) [Example 36] please.
≤ 4 µg/mL

Give the value of MIC reported for the following: C=C[C@]1(C)C[C@@H](OC(=O)NC(=O)c2cnc(N)c([N+](=O)[O-])c2)[C@]2(C)C(C)CC[C@]3(C[C@H](O)C(=O)C32)[C@@H](C)[C@@H]1O (stereo partly drawn) [Example 22]
≤ 4 µg/mL

Identify MIC associated with the compound CC[C@]1(C)CC(OC(=O)NC(=O)c2cnc(NC)nc2)[C@]2(C)C(C)CC[C@]3(C[C@H](O)C(=O)C23)[C@@H](C)[C@@H]1O (stereo partly drawn) [Example 37]
≤ 4 µg/mL

Check the records and state MIC for CC[C@]1(C)CC(OC(=O)NC(=O)c2cnc3[nH]c(=O)cnc3c2)[C@]2(C)C(C)CC[C@]3(C[C@H](O)C(=O)C23)[C@@H](C)[C@@H]1O (stereo partly drawn) [Example 34]
≤ 4 µg/mL

Indicate the recorded MIC value for this compound: C=C[C@]1(C)C[C@@H](OC(=O)NC(=O)c2csc(C3CCN(CC(N)=O)CC3)n2)[C@]2(C)C(C)CC[C@]3(C[C@H](O)C(=O)C32)[C@@H](C)[C@@H]1O (stereo partly drawn) [Example 30]
≤ 4 µg/mL

// Input: CC[C@]1(C)C[C@@H](OC(=O)NC(=O)c2cccc(N)n2)[C@]2(C)C(C)CC[C@]3(C[C@H](O)C(=O)C32)[C@@H](C)[C@@H]1O (stereo partly drawn) [Example 32] . Output its MIC only.
≤ 4 µg/mL

Hello, please tell me recorded MIC for this one: CC[C@]1(C)CC(OC(=O)NC(=O)c2cnc(N)s2)[C@]2(C)C(C)CC[C@]3(C[C@H](O)C(=O)C23)[C@@H](C)[C@@H]1O (stereo partly drawn) [Example 35]
≤ 4 µg/mL

Write down MIC measured for item C=C[C@]1(C)C[C@@H](OC(=O)NC(=O)c2ccc(N)nn2)[C@]2(C)C(C)CC[C@]3(C[C@H](O)C(=O)C32)[C@@H](C)[C@@H]1O.Cl (stereo partly drawn) [Example 27]
≤ 4 µg/mL

Please indicate MIC recorded for CC[C@]1(C)CC(OC(=O)NC(=O)c2cnc(OC)nc2)[C@]2(C)C(C)CC[C@]3(C[C@H](O)C(=O)C23)[C@@H](C)[C@@H]1O (stereo partly drawn) [Example 38]
≤ 4 µg/mL
